experiment: inhibitors of poly I:C-induced TLR3 signaling, primary screen, cell-based, poly I:C stimulus, luciferase, 10K MLSCN set (AID 602277); conditions: HEK293-TLR3 RL24 IRF3 luciferase reporter, at 10 µM, stronger effect = higher value
Rule: inhibition under 20% gives false (0), otherwise true (1).

[[record]]
molecule = "CCC1C(=O)N=C(SCC(=O)Nc2cccc3ccccc23)NC1=O (configuration not stated)"
class_label = "false (0)"

[[record]]
molecule = "COc1ccc(C(=O)CSc2nnc(C3CCCCC3)n2N)c(OC)c1"
class_label = "false (0)"

[[record]]
molecule = "COCCCNC(=O)c1c(N)n(-c2cccc(S(N)(=O)=O)c2)c2nc3ccccc3nc12"
class_label = "false (0)"

[[record]]
molecule = "CCOc1ccccc1-n1c(SCC(=O)NC(C)CC)nnc1-c1ccoc1C (configuration not stated)"
class_label = "false (0)"

[[record]]
molecule = "Cc1nc(NC(=O)C23CCC(C)(C(=O)O2)C3(C)C)sc1C (configuration not stated)"
class_label = "true (1)"

[[record]]
molecule = "CSc1nc(N)nc(SCCS(=O)(=O)c2ccc(Cl)cc2)c1C#N"
class_label = "false (0)"

[[record]]
molecule = "COc1ccc(C2CC(=O)C3=C(C2)Nc2ccccc2N(C(=O)C2CC2)C3c2cccnc2)cc1OC (configuration not stated)"
class_label = "false (0)"

[[record]]
molecule = "O=c1[nH]c2sc3c(c2c2nncn12)CCCC3"
class_label = "false (0)"

[[record]]
molecule = "Cc1cc(C)cc(C(=O)N2CCC(C(N)=O)CC2)c1"
class_label = "true (1)"

[[record]]
molecule = "CCCCOCCCNC(=O)c1cccs1"
class_label = "true (1)"

[[record]]
molecule = "COc1cc(-c2noc(-c3ccccc3C(=O)NCc3ccco3)n2)cc(OC)c1OC"
class_label = "true (1)"

[[record]]
molecule = "CCOc1ccc2c(c1)c1nnc(SCC(=O)N3CCC(C)CC3)nc1n2C"
class_label = "false (0)"


---

Parameter: nuclei count. Scope: all listed entries.
assay: inhibitors of E-selectin induction by TNFa, primary screen, imaging, HUVEC, immunofluorescence, MLSMR starter and 10KST1 sets (AID 487); conditions: HUVEC TNFalpha-induced E-selectin immunofluorescence imaging, at 2 µM; measured here: cell number, toxicity;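 note: 100% = median nuclei count of all wells on the same plate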
REPORTED METRIC: nuclei count (%)

[[record]]
compound = "Cc1cccn2c(=O)c3cc(C(=O)NCc4cccnc4)c(=N)n(C)c3nc12"
reported_metric = "nuclei count"
assay_result = 154

[[record]]
compound = "Cc1ccc(S(=O)(=O)N2CCN(S(=O)(=O)N(C)C)CC2)cc1"
reported_metric = "nuclei count"
assay_result = 111

[[record]]
compound = "COC(=O)CSc1nc2nc(C)cc(C)n2n1"
reported_metric = "nuclei count"
assay_result = 108

[[record]]
compound = "O=C1C(=O)N(Cc2cccnc2)C(c2ccccn2)/C1=C(/O)c1ccccc1 (stereo not given)"
reported_metric = "nuclei count"
assay_result = 158

[[record]]
compound = "CCOC(=O)C1CCN(Cc2ccc(F)c(Br)c2)CC1"
reported_metric = "nuclei count"
assay_result = 140


---

assay: inhibitors of poly I:C-induced TLR3 signaling, primary screen, cell-based, poly I:C stimulus, luciferase, 10K MLSCN set (AID 602277); settings: HEK293-TLR3 RL24 IRF3 luciferase reporter, at 10 µM, stronger effect = higher value
Parameter: inhibition. Scope: all listed entries.
REPORTED METRIC: inhibition (%)

[[record]]
compound = "CC(C)(C)SCCNC(=O)CN1C(=O)c2ccccc2S1(=O)=O"
reported_metric = "inhibition"
assay_result = -7.98

[[record]]
compound = "CCCCCc1c(C)nc(Nc2nc(C)c3cc(OC)ccc3n2)[nH]c1=O"
reported_metric = "inhibition"
assay_result = -6.69

[[record]]
compound = "O=C(NCc1ccccn1)c1cc(-n2cnnc2)ccc1Cl"
reported_metric = "inhibition"
assay_result = 10.6

[[record]]
compound = "O=C(CCS(=O)(=O)c1cccc2nsnc12)NCc1ccccc1"
reported_metric = "inhibition"
assay_result = 5.74

[[record]]
compound = "CS(=O)(=O)N(CC(=O)NCc1ccncc1)Cc1ccc(Cl)cc1"
reported_metric = "inhibition"
assay_result = 18

[[record]]
compound = "COc1ccc(C(=O)NCc2nnc(SCC(=O)Nc3cc(C)cc(C)c3)o2)cc1OC"
reported_metric = "inhibition"
assay_result = 9.85

[[record]]
compound = "CN(C)S(=O)(=O)c1ccc(/C(O)=C2/C(=O)C(=O)N(CCN3CCCCC3)C2c2cccnc2)cc1 (configuration not stated)"
reported_metric = "inhibition"
assay_result = -24

[[record]]
compound = "Cc1nn(C(=O)c2ccoc2C)c(N)c1-c1ccccc1"
reported_metric = "inhibition"
assay_result = -123

[[record]]
compound = "CCOC(=O)C1C2C=CC3(CN(Cc4ccco4)C(=O)C13)O2 (configuration not stated)"
reported_metric = "inhibition"
assay_result = 21.7

[[record]]
compound = "CCOC(=O)C(C)(C)Sc1nc2c(cnn2-c2ccc(Cl)cc2)c(=O)[nH]1"
reported_metric = "inhibition"
assay_result = 16.7

[[record]]
compound = "CCN(CC)Cc1csc(C(N)=O)c1"
reported_metric = "inhibition"
assay_result = 23.4

[[record]]
compound = "c1coc(Cn2nnnc2CN2CCN(C3CCCC3)CC2)c1"
reported_metric = "inhibition"
assay_result = 12.8


---

assay: inhibitors of TNFa-induced NFkB p65 translocation, primary screen, imaging, HUVEC, MLSMR starter and 10KST1 sets (AID 438); conditions: HUVEC TNFa-induced p65 nuclear translocation; at 2 µM, stronger effect = higher value, 0% TNFa-plus-vehicle, 100% no-TNFa wells;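 note: compound added about 3h40 before a 20 min TNFalpha stimulation; signal is the nuclear over cytoplasmic p65 intensity ratio per well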
Parameter: inhibition. Scope: all listed entries.
REPORTED METRIC: inhibition (%)

[[record]]
structure = "CCCSc1nnc(NC(=O)Nc2ccc(F)cc2)s1"
reported_metric = "inhibition"
unit_string = "%"
assay_result = -13.9

[[record]]
structure = "CC(C)c1nnc(NC(=O)C2CCCCC2)s1"
reported_metric = "inhibition"
unit_string = "%"
assay_result = -5.2

[[record]]
structure = "O=C(COC(=O)c1cc(-c2ccco2)nc2ccccc12)NCc1ccc2c(c1)OCO2"
reported_metric = "inhibition"
unit_string = "%"
assay_result = -18.2

[[record]]
structure = "N#Cc1c(NCc2ccccc2)ccnc1NCc1cccnc1"
reported_metric = "inhibition"
unit_string = "%"
assay_result = 2.9


---

target: Voltage-gated potassium channel subunit beta-2 (Rattus norvegicus); experiment: KvBeta enzyme negative modulators, primary screen, biochemical, NADPH fluorescence (AID 622); conditions: recombinant KvBeta, 4-cyanobenzaldehyde reduction, at 10 µM, stronger effect = higher value;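 note: slope of raw intensity against log time taken from 70 to 1610 s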
Parameter: fluorescence slope. Scope: all listed entries.
REPORTED METRIC: fluorescence slope

[[record]]
molecule = "COc1ccc(NC(=O)CN(c2ccc(C)cc2)S(C)(=O)=O)c(OC)c1"
reported_metric = "fluorescence slope"
assay_result = -0.392

[[record]]
molecule = "COC(=O)CC1SCCNC1=O (stereo not given)"
reported_metric = "fluorescence slope"
assay_result = -0.552

[[record]]
molecule = "O=c1[nH]c(NCc2ccccc2)nc2c1CCCC2"
reported_metric = "fluorescence slope"
assay_result = -0.348

[[record]]
molecule = "Cc1ccc(-c2nc3cc(NC(=O)C(C)C)ccc3o2)cc1C"
reported_metric = "fluorescence slope"
assay_result = -0.453

[[record]]
molecule = "Nc1nnc(C(=O)c2ccccc2N)s1"
reported_metric = "fluorescence slope"
assay_result = -0.438

[[record]]
molecule = "COc1ccc(N2C(=O)C3C(C2=O)C2C=CC3C23CC3)c(OC)c1 (stereo not given)"
reported_metric = "fluorescence slope"
assay_result = -0.422

[[record]]
molecule = "COc1ccc(-c2nnc(SCCC(=O)O)n2-c2ccccc2)cc1"
reported_metric = "fluorescence slope"
assay_result = -0.644

[[record]]
molecule = "Cc1cc(OCC(=O)Nn2cnnc2)ccc1Br"
reported_metric = "fluorescence slope"
assay_result = -0.433

[[record]]
molecule = "CN(C)c1nc(OCCNC(=O)Nc2ccccc2)nc(N(C)C)n1"
reported_metric = "fluorescence slope"
assay_result = -0.522

[[record]]
molecule = "Cc1cc(C(=O)NCc2ccc(S(N)(=O)=O)cc2)cs1"
reported_metric = "fluorescence slope"
assay_result = -0.63

[[record]]
molecule = "CCCn1c(C)cc(C(=O)COc2ncnc3sccc23)c1C"
reported_metric = "fluorescence slope"
assay_result = -0.556

[[record]]
molecule = "CCOC(=O)C1=Nc2ccccc2C1=[N+]=[N-]"
reported_metric = "fluorescence slope"
assay_result = -0.477

[[record]]
molecule = "COC(=O)c1ccc(CSc2nc(N3CCOCC3)c3c(c2C#N)CC(C)(C)OC3)o1"
reported_metric = "fluorescence slope"
assay_result = -0.461

[[record]]
molecule = "O=C(Cn1cc2c(n1)CCCCC2)N1CCc2ccccc21"
reported_metric = "fluorescence slope"
assay_result = -0.52

[[record]]
molecule = "N#Cc1nc(COc2ccc(Cl)cc2)oc1N1CCN(Cc2ccccc2)CC1"
reported_metric = "fluorescence slope"
assay_result = -0.411

[[record]]
molecule = "COC(=O)c1[nH]c(C)c(/C(O)=C2\\C(=O)C(=O)N(CCN3CCOCC3)C2c2cccs2)c1C (stereo not given)"
reported_metric = "fluorescence slope"
assay_result = -0.254

[[record]]
molecule = "CS(=O)(=O)N1CCCC(C(=O)NCc2ccccc2Cl)C1 (stereo not given)"
reported_metric = "fluorescence slope"
assay_result = -0.59

[[record]]
molecule = "CCN(CC)S(=O)(=O)c1ccc(NC2CCCc3ccccc32)nc1 (stereo not given)"
reported_metric = "fluorescence slope"
assay_result = -0.594

[[record]]
molecule = "CCOC(=O)C(C)Oc1ccc2c(C)cc(=O)oc2c1C(C)=O (stereo not given)"
reported_metric = "fluorescence slope"
assay_result = -0.459

[[record]]
molecule = "Cc1ccc(NC(=O)Cn2nc(C)c3ccccc3c2=O)cc1"
reported_metric = "fluorescence slope"
assay_result = -0.496

[[record]]
molecule = "Cc1ccccc1Cn1cc(/C=N/n2cnnc2)c2ccccc21"
reported_metric = "fluorescence slope"
assay_result = -0.436

[[record]]
molecule = "CCC1Oc2ccc(C)cc2N(CC(=O)N(Cc2cccnc2)Cc2ccc(C)o2)C1=O (stereo not given)"
reported_metric = "fluorescence slope"
assay_result = -0.599

[[record]]
molecule = "Cc1ccc(C)c(S(=O)(=O)n2cnc3ccccc32)c1"
reported_metric = "fluorescence slope"
assay_result = -0.463

[[record]]
molecule = "CC1CN(c2nc(-c3ccccc3)nc3ccccc23)CC(C)O1 (stereo not given)"
reported_metric = "fluorescence slope"
assay_result = -0.333

[[record]]
molecule = "CC1CCN(CCCNC(=O)c2coc3nc4ccccc4nc23)CC1"
reported_metric = "fluorescence slope"
assay_result = -0.351

[[record]]
molecule = "C(=N\\n1cnnc1)/c1ccccn1"
reported_metric = "fluorescence slope"
assay_result = -0.442

[[record]]
molecule = "COc1ccc(C(=O)Nn2c(C3CCC3)nc3ccccc3c2=O)c(OC)c1"
reported_metric = "fluorescence slope"
assay_result = -0.585

[[record]]
molecule = "CCCCOc1ccc(C(=O)NCC(=O)NCC(=O)OCC)cc1"
reported_metric = "fluorescence slope"
assay_result = -0.49

[[record]]
molecule = "CCN(CC)CCN1C(=O)C(=O)/C(=C(/O)c2c(C)[nH]c(C(=O)OC)c2C)C1c1ccc(OC)cc1 (stereo not given)"
reported_metric = "fluorescence slope"
assay_result = -0.449

[[record]]
molecule = "O=C(NCc1ccccc1)/C(=N\\O)c1ccccc1"
reported_metric = "fluorescence slope"
assay_result = -0.382

